Taken from PubChem BioAssay.

assay: compound effects on multiple myeloma cell viability – MM1S, calcein-AM fluorescence, 48 h, basal, profiling panel (AID 1165); settings: higher = more signal;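 note: viability of MM1S multiple myeloma cells under basal unstimulated conditions; test concentration not given here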
Note that class boundaries on z-score are low-valued = under -2, mid-valued = from -2 up to -0.2, high-valued = -0.2 and over

Solved entries:
compound	assigned-label
COCCOC(=O)N1C(=O)[C@@]2(c3cc(C#CC4=CCCCC4)ccc31)[C@H](C(=O)Nc1nc3ccccc3s1)[C@H]1C(=O)O[C@H](c3ccccc3)[C@H](c3ccccc3)N1[C@@H]2c1ccc(O)cc1	mid-valued
C=CC[C@]1(C(=O)N2CCOCC2)COC(c2ccc(OCCCO)cc2)=N1	mid-valued
NCCCCCNC(=O)[C@@H]1C[C@@H]2C(=O)N[C@@H](CCCCN)C(=O)N2[C@@H]1c1ccc(O)cc1	mid-valued
CCOc1cc(C(O)C2C=CC3C(=O)NC(=O)C3N2Nc2ccc(Cl)cc2Cl)ccc1O (configuration not stated)	mid-valued
COCCOC(=O)N1C(=O)[C@@]2(c3cc(C#CC4(O)CCCCCC4)ccc31)[C@H](c1ccc(O)cc1)N1[C@H](c3ccccc3)[C@H](c3ccccc3)OC(=O)[C@H]1[C@@H]2C(=O)N1CCN(c2ncccn2)CC1	mid-valued
C=CCC(OC(C)=O)[C@@H]1[C@@H](N(Cc2cccc3ccccc23)C(=O)Cc2ccc(F)cc2)c2cc(OCCCO)ccc2N1C(=O)c1ccc2ccccc2c1 (some centres not stated)	mid-valued
O=C1N(Cc2ccccc2)c2ccccc2C[C@]12N=C(c1ccc(OCCCO)cc1)O[C@@H]2c1ccccc1	low-valued
Cc1ccc(S[C@]2(C(=O)NCCN3CCOCC3)CC(=O)N(Cc3ccccc3Cl)[C@@H]2c2ccc(CO)cc2I)cc1	mid-valued
CC1=C2[C@@H](CCc3ccccc3)OB(O)C[C@@H]2[C@@H]2C(=O)N(C)C(=O)[C@@H]2C1	low-valued
[N-]=[N+]=Nc1ccccc1[C@@H]1OC(c2ccc(OCCCO)cc2)=N[C@]1(Cc1ccccc1)C(=O)N1CCCCC1	low-valued

Ask: State the class of the compound shown: "CCCC#C[Si](O[C@H](CC)c1cn([C@H](C)c2ccccc2)nn1)(C(C)C)C(C)C"
Reply: mid-valued

Ask: State the class of the compound shown: "CCCC=C(CCC)[C@@H](NS(=O)(=O)c1ccc(C(F)(F)F)cc1)c1ccccc1"
Reply: mid-valued

Ask: State the class of the compound shown: "COc1ccc([Si](C)(C)[C@H]2[C@H](CC(=O)N3Cc4ccccc4C[C@H]3CO)O[C@@]3(C(=O)N(Cc4ccc(N5CCOC5=O)cc4)c4ccccc43)[C@@H]2C)cc1"
Reply: low-valued

Ask: State the class of the compound shown: "O=C(NCCN1CCOCC1)[C@@H]1c2ccccc2C(=O)N(C2Cc3ccccc3C2)[C@H]1c1ccc(CO)cc1"
Reply: high-valued

Ask: State the class of the compound shown: CC1CC/C=C\[C@H]2OC34C=CCN(Cc5ccccc5)C(=O)[C@H]3N(C(CO)C(C)C)C(=O)[C@@H]4C2C(=O)O1 (some centres not stated)
Reply: high-valued

====

test: change in splice reporter luminescence, either direction, cell-based, HEK293, spliceosome inhibition project, primary screen (AID 1101); conditions: HEK293 splicing luciferase reporter, 24 h, higher = more signal, called active from +8 up or from −8 down;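 note: HEK293 cells carrying a splicing-competent luciferase reporter gene; test concentration not given here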
Active and inactive are the calls of the source.
property-name: z-score

Would you please look over these solved cases?
molecule	recorded-value
CCCCCN1CC=CC23O[C@@H]4/C=C\CCC(C)OC(=O)C4[C@H]2C(=O)N(C(CO)C(C)C)[C@@H]3C1=O (some centres not stated)	0.139 (inactive)
CC(C)c1ccc(NN2C(C(O)c3ccc(F)cc3)C=CC3C(=O)N(c4ccccc4)C(=O)C32)cc1 (configuration not stated)	-0.548 (inactive)
Cc1ccc(NN2C(C(O)c3c(F)cccc3Cl)C=CC3C(=O)N(C4CCCCC4)C(=O)C32)cc1 (configuration not stated)	-1.19 (inactive)
COc1ccccc1CN1C(=O)c2ccccc2[C@](Cc2ccccc2I)(C(=O)O)[C@@H]1c1ccc(CO)cc1	-0.498 (inactive)
C=C(/C(=C/C[C@H](OC(C)=O)c1ccc(CO)o1)c1cnc2ccccc2c1)C(C)C	0.652 (inactive)
O=C1OCCC/C=C\[C@H]2OC34C=CCN(c5ccc6ccccc6c5)C(=O)[C@H]3N(CCO)C(=O)[C@@H]4C12 (some centres not stated)	-1.07 (inactive)

Ask: Looking for the measured z-score of "NCCCCCNC(=O)[C@H]1C[C@H]2C(=O)N3CCC[C@H]3C(=O)N2[C@H]1c1cccc(OCCO)c1" , can you help?
Reply: 0.125 (inactive)

Ask: Looking for the measured z-score of "C#Cc1cc2ccccc2oc1=O" , can you help?
Reply: 3.33 (inactive)

Ask: Looking for the measured z-score of "COC(=O)c1c(CC[C@@H](CO)NC(=O)N2CCC[C@H]2Cn2cc(C3(O)CCCCC3)nn2)oc(C(C)=O)c1C(=O)OC" , can you help?
Reply: -0.503 (inactive)

Ask: Looking for the measured z-score of "[N-]=[N+]=Nc1ccccc1C[C@@]1(C(=O)N2CCOCC2)N=C(c2ccc(OCCCO)cc2)O[C@@H]1c1ccccc1" , can you help?
Reply: -0.818 (inactive)

Ask: Looking for the measured z-score of "C=C(COC)C(=O)CC[C@@H](OC(C)=O)c1cccc(OCCO)c1" , can you help?
Reply: 1.32 (inactive)

Ask: Looking for the measured z-score of "O[C@@H](Cc1ccccc1)[C@@H](/C=C/C1CC1)N(CC#Cc1ccccc1)Cc1ccccc1Br" , can you help?
Reply: -1.39 (inactive)

Ask: Looking for the measured z-score of CC(=O)N1CC2(CC2)CC1c1ccccc1 (configuration not stated) , can you help?
Reply: 0.665 (inactive)

Ask: Looking for the measured z-score of "CC(C)(C)OC(=O)COc1cccc(C(=O)CCN2CCOCC2)c1" , can you help?
Reply: 0.849 (inactive)

Ask: Looking for the measured z-score of "CCCC[C@@H](O)C1=C(COC)C[C@H]2C(=O)N(Cc3ccccc3)C(=O)[C@H]2[C@H]1CO" , can you help?
Reply: 0.296 (inactive)

Ask: Looking for the measured z-score of CCCCC(O)C1C=CC2C(=O)N(C)C(=O)C2N1N(c1ccccc1)c1ccccc1 (configuration not stated) , can you help?
Reply: 1.44 (inactive)

Ask: Looking for the measured z-score of "COCCOC(=O)N1C(=O)[C@@]2(c3cc(C#CC4(O)CCCCCC4)ccc31)[C@H](c1ccc(O)cc1)N1[C@H](c3ccccc3)[C@H](c3ccccc3)OC(=O)[C@H]1[C@@H]2C(=O)N1CCN(c2ncccn2)CC1" , can you help?
Reply: 0.325 (inactive)
